system: Staphylococcus aureus; experiment: Antibacterial activity, serial tube dilution MIC; format: cell-based; conditions: Staphylococcus aureus; average of three readings; 24 h at 37°C; read-out: MIC S. aureus
assayMetric: log10(MIC) (log10 of the value in µg/mL)
Note the log scale: values are log10 of MIC expressed in µg/mL.

- COc1ccccc1Cc1n[nH]c(=S)o1: 0.10
- COc1cccc(CCc2n[nH]c(=S)o2)c1: 0.40
- S=c1[nH]nc(Cc2ccc(Cl)cc2)o1: -0.50
- COc1ccc(-c2n[nH]c(=S)o2)c(OC)c1OC: 0.10

Which log10(MIC) reading was recorded for the compound O=C(O)c1cn(C2CC2)c2cc(N3CCNCC3)c(F)cc2c1=O [Ciprofloxacin, reference compound] ?
-0.81

Which log10(MIC) reading was recorded for the compound COc1ccc(Cc2n[nH]c(=S)o2)cc1 ?
-0.20

---

Examples of molecules with documented MIC follow.
tested on: Bacillus subtilis; experiment: Antibacterial activity, serial tube dilution MIC; type: cell-based; conditions: Bacillus subtilis, 24 h, read-out: MIC B. subtilus

• S=c1[nH]nc(-c2cc3ccccc3[nH]2)o1 [Compound 4b] = 0.313 µg/mL
• S=c1[nH]nc(Cc2ccc(Br)cc2)o1 [Compound 4c] = 0.156 µg/mL
• S=c1[nH]nc(Cc2ccc(Cl)cc2Cl)o1 [Compound 4h] = 0.156 µg/mL
• Fc1cc(Cl)ccc1-c1n[nH]c(=S)o1 [Compound 4r] = 0.313 µg/mL

Continue with the next molecule.
Which MIC reading was recorded for the molecule COc1cccc(Cc2n[nH]c(=S)o2)c1 [Compound 4n] ?
0.156 µg/mL

---

target: UniProtKB P07374; assay: biochemical; type: biochemical
Sequence (P07374 whole entry, looked up): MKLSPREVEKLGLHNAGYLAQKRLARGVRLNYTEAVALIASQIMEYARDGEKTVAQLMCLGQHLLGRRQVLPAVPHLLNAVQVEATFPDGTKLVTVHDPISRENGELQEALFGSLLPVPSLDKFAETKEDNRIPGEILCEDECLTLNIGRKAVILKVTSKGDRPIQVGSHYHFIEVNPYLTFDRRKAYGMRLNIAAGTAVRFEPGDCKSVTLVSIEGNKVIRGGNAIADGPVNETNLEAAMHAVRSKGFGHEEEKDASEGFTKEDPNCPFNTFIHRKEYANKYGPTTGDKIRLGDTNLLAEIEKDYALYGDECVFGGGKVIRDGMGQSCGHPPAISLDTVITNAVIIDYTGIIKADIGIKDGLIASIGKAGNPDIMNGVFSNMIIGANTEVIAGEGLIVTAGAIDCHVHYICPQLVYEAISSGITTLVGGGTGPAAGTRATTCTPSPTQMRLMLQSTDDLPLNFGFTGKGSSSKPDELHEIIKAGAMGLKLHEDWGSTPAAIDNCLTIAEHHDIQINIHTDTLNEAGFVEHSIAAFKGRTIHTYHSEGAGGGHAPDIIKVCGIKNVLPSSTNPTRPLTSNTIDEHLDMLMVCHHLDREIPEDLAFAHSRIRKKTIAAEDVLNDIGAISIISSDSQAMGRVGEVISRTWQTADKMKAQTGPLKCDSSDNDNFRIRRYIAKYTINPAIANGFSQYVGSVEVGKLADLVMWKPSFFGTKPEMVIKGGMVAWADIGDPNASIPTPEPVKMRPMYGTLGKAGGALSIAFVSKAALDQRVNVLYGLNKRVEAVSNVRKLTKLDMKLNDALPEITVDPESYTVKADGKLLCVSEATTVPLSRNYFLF
Examples of compounds with documented pIC50 follow.
# pIC50: negative log10 of molar concentration; output just the value

Some compounds with known pIC50 results, for comparison:
• S=c1[nH]nc(Cc2ccc(Cl)cc2)o1 = 5.94
• S=c1[nH]nc(Cc2ccc(Br)cc2)o1 = 4.93
• COc1ccccc1Cc1n[nH]c(=S)o1 = 5.25
• S=c1[nH]nc(Cc2ccc(Cl)cc2Cl)o1 = 4.37
• S=c1[nH]nc(Cc2ccccc2Cl)o1 = 4.89

Which pIC50 reading was recorded for the compound S=c1[nH]nc(-c2cc3ccccc3[nH]2)o1 ?
4.67

Which pIC50 reading was recorded for the compound COc1ccc(CCc2n[nH]c(=S)o2)cc1 ?
5.25

---

target: UniProt P07374; assay: biochemical; type: biochemical; details: triplicate; thiourea standard; read-out: IC50 ± SEM, inhibitory activity against Jack bean urease
assayMetric: pIC50
# pIC50: negative log10 of molar concentration; output just the value

Which pIC50 reading was recorded for the molecule NC(N)=S [Thiourea, reference compound] ?
4.65

---

Examples of molecules with documented MIC follow.
test system: Staphylococcus aureus; test: Antibacterial activity, serial tube dilution MIC; assay type: cell-based; details: Staphylococcus aureus; average of three readings; 24 h at 37°C; read-out: MIC S. aureus
Report the value in µg/mL with no unit label.

Which MIC reading was recorded for the molecule S=c1[nH]nc(Cc2ccc(Br)cc2)o1 ?
0.625

Which MIC reading was recorded for the molecule Fc1ccccc1Cc1n[nH]c(=S)o1 ?
0.156

Which MIC reading was recorded for the molecule COc1ccc(CCc2n[nH]c(=S)o2)cc1 ?
2.5

Which MIC reading was recorded for the molecule Fc1cc(Cl)ccc1-c1n[nH]c(=S)o1 ?
0.156

Which MIC reading was recorded for the molecule S=c1[nH]nc(Cc2ccc(Cl)cc2Cl)o1 ?
0.625

Which MIC reading was recorded for the molecule S=c1[nH]nc(-c2cc3ccccc3[nH]2)o1 ?
0.156
